Experimental target: human HDAC5 (Homo sapiens, UniProt Q9UQL6)
Construct: made in house
Sequence (Q9UQL6 whole entry): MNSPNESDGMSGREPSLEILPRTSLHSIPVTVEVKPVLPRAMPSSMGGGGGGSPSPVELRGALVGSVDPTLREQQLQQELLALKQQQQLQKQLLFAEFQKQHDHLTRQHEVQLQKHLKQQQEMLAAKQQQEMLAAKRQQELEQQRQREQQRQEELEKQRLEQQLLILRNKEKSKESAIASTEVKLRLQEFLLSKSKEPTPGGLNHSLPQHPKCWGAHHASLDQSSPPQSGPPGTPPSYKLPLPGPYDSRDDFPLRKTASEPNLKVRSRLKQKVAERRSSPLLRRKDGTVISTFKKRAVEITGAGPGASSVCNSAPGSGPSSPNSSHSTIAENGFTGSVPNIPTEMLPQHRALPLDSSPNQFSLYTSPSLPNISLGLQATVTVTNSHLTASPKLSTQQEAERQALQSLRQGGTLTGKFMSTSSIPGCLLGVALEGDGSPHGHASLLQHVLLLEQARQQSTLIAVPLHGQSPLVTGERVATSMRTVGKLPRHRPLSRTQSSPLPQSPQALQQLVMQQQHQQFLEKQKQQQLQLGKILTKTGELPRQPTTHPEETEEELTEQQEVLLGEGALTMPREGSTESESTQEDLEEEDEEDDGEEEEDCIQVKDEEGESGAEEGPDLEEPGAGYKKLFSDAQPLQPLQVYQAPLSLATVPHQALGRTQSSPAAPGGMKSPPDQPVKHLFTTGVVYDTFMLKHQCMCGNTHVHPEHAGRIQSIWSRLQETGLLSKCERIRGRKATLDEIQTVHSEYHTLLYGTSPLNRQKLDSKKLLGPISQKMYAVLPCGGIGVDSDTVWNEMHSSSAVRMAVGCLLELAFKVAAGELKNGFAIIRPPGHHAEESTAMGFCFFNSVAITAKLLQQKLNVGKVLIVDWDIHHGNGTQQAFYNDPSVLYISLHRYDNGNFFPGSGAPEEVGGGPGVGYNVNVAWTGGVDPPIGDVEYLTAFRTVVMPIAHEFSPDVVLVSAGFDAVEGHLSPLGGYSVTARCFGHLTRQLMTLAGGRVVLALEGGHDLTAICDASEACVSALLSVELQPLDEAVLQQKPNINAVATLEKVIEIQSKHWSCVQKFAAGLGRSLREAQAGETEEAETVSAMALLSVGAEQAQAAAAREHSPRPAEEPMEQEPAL
Protocol: HDAC5 dose response, substrate Abz-SRGGK(thio-TFA)FFRR-NH2
Assay type: biochemical
Parameter: IC50. Scope: all listed entries.

// Nc1ccccc1NC(=O)c1cnc(N2CCN(Cc3c[nH]c4ccccc34)CC2)cn1 [19f] : IC50 value = > 20 µM

// Cn1cc(CCN2CCN(c3cnc(C(=O)Nc4cc(-c5cccs5)ccc4N)cn3)CC2)c2ccccc21 [21a] : IC50 value = > 20 µM

----------
Parameter: inhibition at 1 µM. Scope: all listed entries.
Experimental target: human HDAC2 (Homo sapiens)
Construct: purchased ENZO Life Sciences AG (Lausen, CH)
Sequence (Q92769 whole entry): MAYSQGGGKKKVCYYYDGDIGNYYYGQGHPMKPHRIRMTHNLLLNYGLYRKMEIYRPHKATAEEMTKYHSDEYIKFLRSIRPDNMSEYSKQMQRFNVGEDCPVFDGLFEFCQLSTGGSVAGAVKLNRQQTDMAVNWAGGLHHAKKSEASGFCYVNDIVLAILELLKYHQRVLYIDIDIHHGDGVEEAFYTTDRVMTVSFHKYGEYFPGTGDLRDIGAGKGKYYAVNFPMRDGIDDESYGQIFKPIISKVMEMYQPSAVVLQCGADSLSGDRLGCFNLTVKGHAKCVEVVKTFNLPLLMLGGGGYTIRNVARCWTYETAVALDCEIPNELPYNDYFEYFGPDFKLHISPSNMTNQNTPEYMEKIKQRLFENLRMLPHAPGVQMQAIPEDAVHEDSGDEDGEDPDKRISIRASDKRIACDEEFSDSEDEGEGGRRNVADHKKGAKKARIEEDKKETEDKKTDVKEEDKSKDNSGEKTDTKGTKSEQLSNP
Protocol: In vitro HDAC2 inhibition assay, fluorogenic p53 peptide Ac-RHKK(Acetyl)-AMC
Assay type: biochemical
Condition description: read-out: HDAC2 % inhibition @ 1 µM
Please state the figure in %; there is no need to write the unit.

// Nc1cc(Cl)ccc1NC(=O)c1cnc(N2CCNCC2)cn1 [25a] : inhibition at 1 µM value = 0

// Nc1ccc(C(F)(F)F)cc1NC(=O)c1cnc(N2CCNCC2)cn1 [27a] : inhibition at 1 µM value = 0

Continuing:
// CN1CCN(c2ncc(C(=O)Nc3ccccc3N)cn2)CC1 [19n] : inhibition at 1 µM value = 7

// CN1CCN(c2cnc(C(=O)Nc3ccccc3N)cn2)CC1 [19o] : inhibition at 1 µM value = 15

// `CC(=O)Nc1ccc(C(=O)Nc2ccccc2N)cc1` : inhibition at 1 µM value = 36

// Cc1ccc(NC(=O)c2cnc(N3CCNCC3)cn2)c(N)c1 [27b] : inhibition at 1 µM value = 0

----------
Experimental target: human HDAC1 (Homo sapiens, UniProt Q13547)
Construct: purchased ENZO Life Sciences AG (Lausen, CH)
Sequence (Q13547 whole entry): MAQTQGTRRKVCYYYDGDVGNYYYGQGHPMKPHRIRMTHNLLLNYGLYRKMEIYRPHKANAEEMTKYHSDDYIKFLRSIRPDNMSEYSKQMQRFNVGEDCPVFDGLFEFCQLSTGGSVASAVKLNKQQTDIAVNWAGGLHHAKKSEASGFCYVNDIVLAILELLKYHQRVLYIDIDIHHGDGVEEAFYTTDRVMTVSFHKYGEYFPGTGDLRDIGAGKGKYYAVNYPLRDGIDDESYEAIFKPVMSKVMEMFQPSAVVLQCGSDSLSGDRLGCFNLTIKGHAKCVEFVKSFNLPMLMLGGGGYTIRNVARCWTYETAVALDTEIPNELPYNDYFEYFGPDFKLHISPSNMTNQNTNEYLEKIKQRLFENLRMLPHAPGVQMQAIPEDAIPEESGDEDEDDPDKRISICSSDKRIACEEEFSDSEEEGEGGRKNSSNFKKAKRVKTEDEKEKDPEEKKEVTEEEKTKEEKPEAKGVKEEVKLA
Protocol: In vitro HDAC1 inhibition assay, fluorogenic p53 peptide Ac-RHKK(Acetyl)-AMC
Assay type: biochemical
Condition description: read-out: HDAC1 % inhibition @ 1 µM
Reported endpoint: inhibition at 1 µM (%)
Please state the figure in %; there is no need to write the unit.

// Cc1ccc(NC(=O)c2cnc(N3CCNCC3)cn2)c(N)c1 [27b] : inhibition at 1 µM value = 0

// `CC(=O)Nc1ccc(C(=O)Nc2ccccc2N)cc1` : inhibition at 1 µM value = 37

// Nc1ccc(C(F)(F)F)cc1NC(=O)c1cnc(N2CCNCC2)cn1 [27a] : inhibition at 1 µM value = 0

// CN1CCN(c2ncc(C(=O)Nc3ccccc3N)cn2)CC1 [19n] : inhibition at 1 µM value = 5

// CN1CCN(c2cnc(C(=O)Nc3ccccc3N)cn2)CC1 [19o] : inhibition at 1 µM value = 27

// Nc1cc(Cl)ccc1NC(=O)c1cnc(N2CCNCC2)cn1 [25a] : inhibition at 1 µM value = 0

----------
Parameter: IC50. Scope: all listed entries.
Experimental target: human HDAC2 (Homo sapiens)
Construct: purchased ENZO Life Sciences AG (Lausen, CH)
Protocol: In vitro HDAC2 inhibition assay, fluorogenic p53 peptide Ac-RHKK(Acetyl)-AMC
Format: biochemical
Condition description: 3 nM HDAC2, 20 µM substrate, 30 min, 37 °C
Please state the figure in µM; there is no need to write the unit.

Some solved cases for reference:
Let me check: CN1CCN(c2cnc(C(=O)Nc3cc(-c4ccsc4)ccc3N)cn2)CC1 [29a] , system human HDAC2 (Homo sapiens), measured IC50 is 0.18

Let me check: Cn1cc(CCN2CCN(c3cnc(C(=O)Nc4ccc(F)cc4N)cn3)CC2)c2ccccc21 [19m] , system human HDAC2 (Homo sapiens), measured IC50 is 1.48

Let me check: Nc1cc(Cl)ccc1NC(=O)c1cnc(N2CCN(CCc3c[nH]c4ccccc34)CC2)cn1 [19i] , system human HDAC2 (Homo sapiens), measured IC50 is 2.7

Let me check: Cn1cc(CCN2CCN(c3cnc(C(=O)Nc4cc(F)ccc4N)cn3)CC2)c2ccccc21 [23c] , system human HDAC2 (Homo sapiens), measured IC50 is 1.37

Let me check: Cn1cc(CN2CCN(c3cnc(C(=O)Nc4ccccc4N)cn3)CC2)c2ccccc21 [19k] , system human HDAC2 (Homo sapiens), measured IC50 is 0.56

Let me check: Nc1cc(F)ccc1NC(=O)c1cnc(N2CCNCC2)cn1 [23a] , system human HDAC2 (Homo sapiens), measured IC50 is 2.2

Continuing:
Let me check: COc1ccc(NC(=O)c2cnc(N3CCNCC3)cn2)c(N)c1 [27c] , system human HDAC2 (Homo sapiens), measured IC50 is 14

Let me check: CN1CCN(c2cnc(C(=O)Nc3cc(-c4ccccc4F)ccc3N)cn2)CC1 [29d] , system human HDAC2 (Homo sapiens), measured IC50 is 0.26

Let me check: Nc1ccc(-c2cccs2)cc1NC(=O)c1cnc(N2CCNCC2)cn1 [29b] , system human HDAC2 (Homo sapiens), measured IC50 is 0.26

Let me check: Cn1cc(CN2CCN(c3cnc(C(=O)Nc4cc(F)c(F)cc4N)cn3)CC2)c2ccccc21 [19l] , system human HDAC2 (Homo sapiens), measured IC50 is 0.56

Let me check: Cn1cc(CN2CCN(c3ncc(C(=O)Nc4ccccc4N)cn3)CC2)c2ccccc21 [19j] , system human HDAC2 (Homo sapiens), measured IC50 is 0.93

Let me check: Nc1ccccc1NC(=O)c1cnc(N2CCN(Cc3ccccn3)CC2)cn1 [19d] , system human HDAC2 (Homo sapiens), measured IC50 is 1.43

Let me check: Cn1cc(CN2CCN(c3cnc(C(=O)Nc4cc(F)ccc4N)cn3)CC2)c2ccccc21 [23b] , system human HDAC2 (Homo sapiens), measured IC50 is 0.5

Let me check: Nc1ccccc1NC(=O)c1cnc(N2CCN(CCc3ccccc3)CC2)cn1 [19a] , system human HDAC2 (Homo sapiens), measured IC50 is 0.8

Let me check: Nc1ccc(-c2ccc(F)cc2)cc1NC(=O)c1cnc(N2CCN(CCc3c[nH]c4ccccc34)CC2)cn1 [21b] , system human HDAC2 (Homo sapiens), measured IC50 is 0.77

Let me check: Nc1cc(F)c(F)cc1NC(=O)c1cnc(N2CCNCC2)cn1 [25b] , system human HDAC2 (Homo sapiens), measured IC50 is 4.2

Let me check: Nc1ccc(-c2ccc(F)cc2)cc1NC(=O)c1cnc(N2CCNCC2)cn1 [29c] , system human HDAC2 (Homo sapiens), measured IC50 is 0.34

Let me check: Nc1cc(F)c(F)cc1NC(=O)c1cnc(N2CCN(CCc3c[nH]c4ccccc34)CC2)cn1 [19h] , system human HDAC2 (Homo sapiens), measured IC50 is 0.74

Let me check: Nc1ccccc1NC(=O)c1cnc(N2CCN(CCc3c[nH]c4ccccc34)CC2)cn1 [19g] , system human HDAC2 (Homo sapiens), measured IC50 is 0.96

Let me check: Nc1ccccc1NC(=O)c1cnc(N2CCN(Cc3csc4ccccc34)CC2)cn1 [19e] , system human HDAC2 (Homo sapiens), measured IC50 is 0.71

Let me check: Nc1ccc(-c2ccccc2F)cc1NC(=O)c1cnc(N2CCN(CCc3c[nH]c4ccccc34)CC2)cn1 [21c] , system human HDAC2 (Homo sapiens), measured IC50 is 0.76

Let me check: Nc1ccccc1NC(=O)c1cnc(N2CCN(Cc3c[nH]c4ccccc34)CC2)cn1 [19f] , system human HDAC2 (Homo sapiens), measured IC50 is 0.28

Let me check: Cn1cc(CCN2CCN(c3cnc(C(=O)Nc4cc(-c5cccs5)ccc4N)cn3)CC2)c2ccccc21 [21a] , system human HDAC2 (Homo sapiens), measured IC50 is 2.47

----------
Parameter: IC50. Scope: all listed entries.
Experimental target: HDAC6 (Homo sapiens, UniProt Q9UBN7)
Construct: made in house
Sequence (Q9UBN7 whole entry): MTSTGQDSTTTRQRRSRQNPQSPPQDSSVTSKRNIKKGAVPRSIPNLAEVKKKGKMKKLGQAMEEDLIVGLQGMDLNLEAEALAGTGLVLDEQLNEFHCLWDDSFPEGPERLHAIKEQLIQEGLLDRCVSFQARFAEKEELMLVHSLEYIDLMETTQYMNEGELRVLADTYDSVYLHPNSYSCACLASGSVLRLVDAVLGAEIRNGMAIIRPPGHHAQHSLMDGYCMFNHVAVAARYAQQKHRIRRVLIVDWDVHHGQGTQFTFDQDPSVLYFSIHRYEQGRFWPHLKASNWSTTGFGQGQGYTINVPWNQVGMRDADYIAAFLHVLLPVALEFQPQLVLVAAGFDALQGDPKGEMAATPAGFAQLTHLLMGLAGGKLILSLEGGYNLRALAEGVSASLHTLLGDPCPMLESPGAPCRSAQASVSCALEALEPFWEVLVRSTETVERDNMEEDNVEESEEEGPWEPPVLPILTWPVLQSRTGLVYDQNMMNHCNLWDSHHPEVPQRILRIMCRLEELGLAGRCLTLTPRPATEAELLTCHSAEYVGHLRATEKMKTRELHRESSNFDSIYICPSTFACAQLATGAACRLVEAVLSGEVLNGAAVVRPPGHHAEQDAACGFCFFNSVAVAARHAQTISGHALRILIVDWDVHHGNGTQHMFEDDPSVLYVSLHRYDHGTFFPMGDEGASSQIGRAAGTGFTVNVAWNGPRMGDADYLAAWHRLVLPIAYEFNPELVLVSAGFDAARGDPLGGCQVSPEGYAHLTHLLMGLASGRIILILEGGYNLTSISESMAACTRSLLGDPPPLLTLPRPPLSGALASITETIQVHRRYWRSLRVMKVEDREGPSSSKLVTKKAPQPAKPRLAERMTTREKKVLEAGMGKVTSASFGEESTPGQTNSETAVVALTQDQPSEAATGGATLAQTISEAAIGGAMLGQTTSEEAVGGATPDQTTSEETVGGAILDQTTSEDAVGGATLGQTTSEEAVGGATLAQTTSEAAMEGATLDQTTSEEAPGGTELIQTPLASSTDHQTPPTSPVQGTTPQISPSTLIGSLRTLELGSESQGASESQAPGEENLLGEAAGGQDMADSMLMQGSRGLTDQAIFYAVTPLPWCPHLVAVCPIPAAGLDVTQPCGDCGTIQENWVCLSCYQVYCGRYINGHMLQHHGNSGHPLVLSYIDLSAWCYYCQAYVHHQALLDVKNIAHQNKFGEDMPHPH
Protocol: HDAC6 inhibition (HDAC subtype panel)
Assay type: biochemical

// Cn1cc(CCN2CCN(c3cnc(C(=O)Nc4cc(-c5cccs5)ccc4N)cn3)CC2)c2ccccc21 [21a] : IC50 value = > 20 µM

Attention now shifts to the item below.
// Nc1ccccc1NC(=O)c1cnc(N2CCN(Cc3c[nH]c4ccccc34)CC2)cn1 [19f] : IC50 value = > 20 µM

----------
Experimental target: human HDAC3/NCOR1 (Homo sapiens)
Construct: purchased ENZO Life Sciences AG (Lausen, CH)
Sequence (O15379 whole entry): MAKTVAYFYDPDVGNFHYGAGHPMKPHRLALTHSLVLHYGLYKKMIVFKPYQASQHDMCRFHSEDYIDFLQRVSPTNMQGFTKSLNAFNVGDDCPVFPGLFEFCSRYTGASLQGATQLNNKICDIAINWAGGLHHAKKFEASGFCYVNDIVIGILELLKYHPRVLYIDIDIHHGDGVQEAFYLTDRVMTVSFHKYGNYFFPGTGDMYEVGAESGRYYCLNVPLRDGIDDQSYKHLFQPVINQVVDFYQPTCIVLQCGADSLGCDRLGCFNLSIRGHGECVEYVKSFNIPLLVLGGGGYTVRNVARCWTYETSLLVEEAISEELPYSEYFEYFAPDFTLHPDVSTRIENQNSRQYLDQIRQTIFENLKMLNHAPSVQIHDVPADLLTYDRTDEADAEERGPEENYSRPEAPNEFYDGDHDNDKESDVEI
Sequence (O75376 395-489 partner limits assumed): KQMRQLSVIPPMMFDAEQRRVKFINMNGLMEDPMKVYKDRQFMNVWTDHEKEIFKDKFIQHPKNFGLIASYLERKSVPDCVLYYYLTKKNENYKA
Protocol: In vitro HDAC3 inhibition assay, fluorogenic p53 peptide Ac-RHKK(Acetyl)-AMC
Assay type: biochemical
Condition description: 3 nM HDAC3, 20 µM substrate, 30 min, 37 °C
So basically: is IC50 under 1 µM? Then Condition met. Not under? Then Condition not met.

Use these answered entries as a reference point.
Is the reported IC50 for Nc1ccccc1NC(=O)c1cnc(N2CCN(Cc3c[nH]c4ccccc34)CC2)cn1 [19f] strictly below 1 µM? Condition met

Is the reported IC50 for Nc1ccc(-c2cccs2)cc1NC(=O)c1cnc(N2CCNCC2)cn1 [29b] strictly below 1 µM? Condition not met

Is the reported IC50 for Cn1cc(CCN2CCN(c3cnc(C(=O)Nc4ccc(F)cc4N)cn3)CC2)c2ccccc21 [19m] strictly below 1 µM? Condition met

Is the reported IC50 for Nc1ccc(-c2ccccc2F)cc1NC(=O)c1cnc(N2CCN(CCc3c[nH]c4ccccc34)CC2)cn1 [21c] strictly below 1 µM? Condition not met

Is the reported IC50 for Nc1cc(F)c(F)cc1NC(=O)c1cnc(N2CCN(CCc3c[nH]c4ccccc34)CC2)cn1 [19h] strictly below 1 µM? Condition met

Is the reported IC50 for Cn1cc(CN2CCN(c3ncc(C(=O)Nc4ccccc4N)cn3)CC2)c2ccccc21 [19j] strictly below 1 µM? Condition not met

Is the reported IC50 for Nc1cc(Cl)ccc1NC(=O)c1cnc(N2CCN(CCc3c[nH]c4ccccc34)CC2)cn1 [19i] strictly below 1 µM? Condition not met

Is the reported IC50 for Cn1cc(CN2CCN(c3cnc(C(=O)Nc4cc(F)c(F)cc4N)cn3)CC2)c2ccccc21 [19l] strictly below 1 µM? Condition met

Continuing:
Is the reported IC50 for Nc1ccccc1NC(=O)c1cnc(N2CCN(Cc3ccccn3)CC2)cn1 [19d] strictly below 1 µM? Condition not met
